measurement_target: Gal(b1-4)GlcNAc(b1-2)Man(a1-6)[GlcNAc(b1-2)Man(a1-3)]Man(b1-4)GlcNAc(b1-4)GlcNAc
procedure_text: glycan array binding signal (z-score within array); higher = stronger binding
experimental_setup: glycan notation: IUPAC condensed, linker removed
About 410 targets per protein were measured; listed, in parts, are those with the strongest signals and a random draw of the rest.
Would you kindly list glycan array binding signal (z-score) for each of these binders?

Reference set, count: 2
HPA (Helix pomatia), Q575S3 (protein) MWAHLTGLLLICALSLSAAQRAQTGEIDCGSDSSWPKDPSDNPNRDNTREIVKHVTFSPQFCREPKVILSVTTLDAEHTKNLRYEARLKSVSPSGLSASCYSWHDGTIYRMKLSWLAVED ... -0.239
HPAIIITrx (Helix pomatia), Q1KM18 (protein) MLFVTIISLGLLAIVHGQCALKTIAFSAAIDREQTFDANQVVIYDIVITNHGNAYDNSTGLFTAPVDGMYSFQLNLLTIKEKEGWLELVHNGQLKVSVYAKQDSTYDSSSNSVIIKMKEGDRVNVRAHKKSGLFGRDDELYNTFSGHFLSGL ... -0.301

Assign glycan array binding signal (z-score) to the following record: LSECtin (Homo sapiens), Q6UXB4 (protein) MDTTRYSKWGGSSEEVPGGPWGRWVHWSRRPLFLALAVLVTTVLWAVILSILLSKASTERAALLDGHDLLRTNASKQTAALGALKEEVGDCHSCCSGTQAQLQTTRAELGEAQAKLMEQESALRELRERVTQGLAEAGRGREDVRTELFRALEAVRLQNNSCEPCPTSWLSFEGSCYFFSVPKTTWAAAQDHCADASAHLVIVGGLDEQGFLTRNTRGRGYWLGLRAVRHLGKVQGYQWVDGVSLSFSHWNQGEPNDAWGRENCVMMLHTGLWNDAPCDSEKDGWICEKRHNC
5.9
